Tested Target: Focal Adhesion Kinase (FAK) (Homo sapiens, UniProt Q05397)
Sequence (Q05397 384-706): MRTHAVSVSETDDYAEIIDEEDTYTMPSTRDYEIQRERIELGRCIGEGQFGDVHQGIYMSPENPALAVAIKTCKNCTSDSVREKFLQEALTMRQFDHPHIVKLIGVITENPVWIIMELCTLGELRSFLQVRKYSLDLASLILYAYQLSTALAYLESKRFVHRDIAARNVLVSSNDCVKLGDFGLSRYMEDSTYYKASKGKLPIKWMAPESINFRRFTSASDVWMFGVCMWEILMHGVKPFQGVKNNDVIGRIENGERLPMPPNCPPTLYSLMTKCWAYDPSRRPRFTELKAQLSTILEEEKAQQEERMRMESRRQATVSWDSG
Procedure Details: FAK assay system (Focal Adhesion Kinase inhibition)
Type: biochemical
Experimental Setup: read-out: FAK IC50
Recorded Endpoint: pIC50
Note: pIC50 values are expressed as the negative base-10 logarithm of concentration in M.

[
  {
    "Molecule": "COc1cc(F)ccc1Nc1ncc(Cl)c(Nc2ccccc2S(=O)(=O)N2CCOCC2)n1 [Example 16B]",
    "pIC50": 7.96
  }
]

stdin: Param item = `CNC(=O)c1cc(N2CCCC2)ccc1Nc1nc(Nc2ccc(N3CCN(C)CC3)cc2OC)ncc1Cl` ; retrieve measured pIC50.
stdout: 7.82

stdin: Param item = `CNS(=O)(=O)c1ccccc1Nc1nc(Nc2cccc3c2CCCC3)ncc1Br` ; retrieve measured pIC50.
stdout: 7.89

* * *

Tested Target: Focal Adhesion Kinase (FAK) (Homo sapiens)
Procedure Details: FAK assay system (Focal Adhesion Kinase inhibition)
Format: biochemical
Experimental Setup: read-out: FAK IC50
Let's look at some compounds and their measured pIC50.
Note: pIC50 values are expressed as the negative base-10 logarithm of concentration in M.

Below, each entry is followed by its recorded pIC50 result.
[
  {
    "Compound": "COc1cc(N2CCC(C(N)=O)CC2)ccc1Nc1ncc(Cl)c(Nc2ccccc2S(=O)(=O)C(C)C)n1 [Example 28-15]",
    "Value Reported": 8.00
  },
  {
    "Compound": "CCS(=O)(=O)c1ccccc1Nc1nc(Nc2ccc(N3CCN(C(C)=O)CC3)cc2OC)ncc1Cl [Example 27-5]",
    "Value Reported": 8.09
  },
  {
    "Compound": "CNS(=O)(=O)c1ccccc1Nc1nc(Nc2ccc(N3CCN(C)CC3)cc2OC)ncc1Cl [Example 20-6]",
    "Value Reported": 8.30
  }
]

stdin: Param item = COc1cc(N2CCOCC2)ccc1Nc1ncc(Cl)c(Nc2ccccc2S(=O)(=O)C2CC2)n1 [Example 30-1] ; retrieve measured pIC50.
stdout: 7.66

* * *

Let's look at some compounds and their measured IC50.
Tested Target: Focal Adhesion Kinase (FAK) (Homo sapiens, UniProt Q05397)
Procedure Details: FAK assay system (Focal Adhesion Kinase inhibition)
Assay type: biochemical
Experimental Setup: read-out: FAK IC50
Please give a number only; it is taken to be in nM.

[
  {
    "Molecule Smiles": "COc1cc(N2CCOCC2)ccc1Nc1ncc(Cl)c(Nc2ccccc2S(=O)(=O)NC2CCC2)n1",
    "Recorded Endpoint": "IC50",
    "Value Reported": 3.6
  },
  {
    "Molecule Smiles": "COc1cc(N2CCC(N3CCN(C)CC3)CC2)ccc1Nc1ncc(Cl)c(Nc2ccccc2S(=O)(=O)NC(C)C)n1",
    "Recorded Endpoint": "IC50",
    "Value Reported": 1.6
  },
  {
    "Molecule Smiles": "CCCS(=O)(=O)c1ccccc1Nc1nc(Nc2ccc(N3CCN(C(=O)C(C)C)CC3)cc2OC)ncc1Cl",
    "Recorded Endpoint": "IC50",
    "Value Reported": 2.3
  }
]

Here is the next item to consider.
stdin: Param item = `CNS(=O)(=O)c1ccccc1Nc1nc(Nc2cc(OCCCN3CCOCC3)ccc2OC)ncc1Br` ; retrieve measured IC50.
stdout: 11

* * *

Tested Target: Focal Adhesion Kinase (FAK) (Homo sapiens, UniProt Q05397)
Procedure Details: FAK assay system (Focal Adhesion Kinase inhibition)
Format: biochemical
Experimental Setup: read-out: FAK IC50
Recorded Endpoint: IC50 (nM)
Please give a number only; it is taken to be in nM.

Below, each entry is followed by its recorded IC50 result.
[
  {
    "Compound": "CCOc1ccc(OCC)c(Nc2ncc(Br)c(Nc3ccccc3S(=O)(=O)NC)n2)c1",
    "Unit Abbrev": "nM",
    "IC50": 34
  },
  {
    "Compound": "CNS(=O)(=O)c1ccccc1Nc1nc(Nc2cc(-c3cccnc3)ccc2OC)ncc1Br",
    "Unit Abbrev": "nM",
    "IC50": 1
  }
]

Here is the next item to consider.
stdin: Param item = COc1cc(OCC2CCCCN2C)ccc1Nc1ncc(Cl)c(Nc2ccccc2S(=O)(=O)NC(C)C)n1 (centres unmarked) ; retrieve measured IC50.
stdout: 1
